Tested on: SK-MEL-2 multi-cell spheroids, viability
ASSAY: Anticancer human tumor SK-MEL-2 cell line growth inhibition [TAK];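 further: spheroids exposed to drugs for seven days before readout; percent of DMSO vehicle control luminescence so 100% = untreated viability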
ASSAY CONDITIONS: second compound 0.3 µM; first compound 0.00316 µM; stronger effect = lower value
Recorded viability, T/C for the following molecules
// return numeric value only (unit: %, not printed)

The cases that follow already have their viability, T/C on record.
MOLECULE	viability, T/C, %
CC(C)CC(NC(=O)C(Cc1ccccc1)NC(=O)c1cnccn1)B(O)O (stereo not given) + CC(C)NCC(C(=O)N1CCN(c2ncnc3c2C(C)CC3O)CC1)c1ccc(Cl)cc1	122
COc1c(OCCCN2CCOCC2)ccc2c3n(c(=NC(=O)c4cnc(N)nc4)nc12)CCN3 + CC(C)NCC(C(=O)N1CCN(c2ncnc3c2C(C)CC3O)CC1)c1ccc(Cl)cc1	92
CC(C)n1nc(-c2ccc3oc(N)nc3c2)c2c(N)ncnc21 + CC(C)NCC(C(=O)N1CCN(c2ncnc3c2C(C)CC3O)CC1)c1ccc(Cl)cc1	82.1
CC(C)CC(NC(=O)CNC(=O)c1cc(Cl)ccc1Cl)B1OC(=O)CC(CC(=O)O)(C(=O)O)O1 (stereo not given) + CC(C)NCC(C(=O)N1CCN(c2ncnc3c2C(C)CC3O)CC1)c1ccc(Cl)cc1	85

Could you now look at the following molecule, please?
SK-MEL-2 multi-cell spheroids, viability data for COC1CC2CCC(C)C(O)(O2)C(=O)C(=O)N2CCCCC2C(=O)OC(C(C)CC2CCC(OCCO)C(OC)C2)CC(=O)C(C)C=C(C)C(O)C(OC)C(=O)C(C)CC(C)C=CC=CC=C1C (stereo not given) + CC(C)NCC(C(=O)N1CCN(c2ncnc3c2C(C)CC3O)CC1)c1ccc(Cl)cc1 ; its viability, T/C: 48.9
